Cited source for all entries: ChEMBL document CHEMBL2203036

molecular target: Cytochrome P450 3A4 (Homo sapiens, UniProt P08684); test: Inhibition of human recombinant CYP3A4 using resorufin benzyl ether after 30 mins by fluorescence spectrophotometric analysis
Sequence (P08684 whole entry): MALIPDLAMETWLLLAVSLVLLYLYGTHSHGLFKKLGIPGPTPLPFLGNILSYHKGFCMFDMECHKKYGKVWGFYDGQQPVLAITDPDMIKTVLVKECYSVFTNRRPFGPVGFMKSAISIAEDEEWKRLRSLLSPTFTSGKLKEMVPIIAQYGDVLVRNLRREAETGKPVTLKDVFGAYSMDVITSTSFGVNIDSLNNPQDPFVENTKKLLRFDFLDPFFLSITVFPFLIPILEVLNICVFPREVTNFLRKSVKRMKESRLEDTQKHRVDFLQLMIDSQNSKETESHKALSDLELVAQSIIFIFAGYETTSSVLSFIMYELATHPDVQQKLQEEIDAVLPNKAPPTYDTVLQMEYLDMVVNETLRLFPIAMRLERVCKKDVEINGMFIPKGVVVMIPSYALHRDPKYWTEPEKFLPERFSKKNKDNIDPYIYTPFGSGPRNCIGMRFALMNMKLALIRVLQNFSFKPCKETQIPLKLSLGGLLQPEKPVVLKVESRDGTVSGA
pIC50: −log10 of the molar value.
Reported Endpoint: pIC50

                            smiles_repr  quantitative_result
0    Cc1ccc(Sc2ccccc2N2CCNCC2)c(C)c1.Cl                 5.00
1      Cc1ccc(Sc2ccccc2N2CCNCC2)cc1C.Cl                 4.96
2  Cl.Clc1ccc(Sc2ccccc2N2CCNCC2)c(Cl)c1                 5.36
3   Cc1ccc(Sc2ccccc2N2CCNCC2)c(Cl)c1.Cl                 5.26

(1) Cl.Clc1ccc(Sc2ccccc2N2CCNCC2)cc1
(2) Cc1ccc(Sc2ccccc2N2CCNCC2)cc1.Cl
Compare pIC50: is it lower for 1 or for 2 ? Select an item and report its label.
2
